- target.or.test.system: T1, C-terminal His6-tagged human Bak (residues 23–185;C166S) (human, UniProt Q16611 23-185, C166S)
- T1 construct: also called recombinant Bak; source: E. coli BL21(DE3) RIL, purified (Ni-NTA, Superdex 75 gel filtration); not shown: His6, C-terminal, kept
- T1 sequence (looked up): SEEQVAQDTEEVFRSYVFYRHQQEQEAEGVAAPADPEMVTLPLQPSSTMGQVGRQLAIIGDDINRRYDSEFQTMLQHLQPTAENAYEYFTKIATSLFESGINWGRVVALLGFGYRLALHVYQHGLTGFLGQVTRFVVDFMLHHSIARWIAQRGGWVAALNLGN
- assay.explanation: ITC; Pxt1 peptide (0.8 mM) titrated into 80 μM recombinant Bak; no detergent; performed as in ref. 27
- experimental.context: both partners purified
pKd: −log10 of the molar value.
metric.name: pKd

>>> observed_value("EEIIHKLAMQLRHIGDNIDHRMVRED (peptide, UniProt Q8NFP0 76-101, looked up, Pxt1, human, residues 76-101; also called human Pxt1 BH3; Pxt1 BH3 peptide; source: synthetic peptide (Peptron, Korea)) [synthetic human Pxt1(76–101) peptide]")
4.81
